Measured glycan array binding signal (z-score), listed per entry for reference.
STUDY SYSTEM: Gal(b1-4)Glc
EXPERIMENT NOTES: glycan array binding signal (z-score within array); higher = stronger binding
CONDITIONS USED: glycan notation: IUPAC condensed, linker removed
Shown is part of a subset that was picked to be rich in the strongest signals.
Form rule: numeric answer, no unit written next to it.

Would you please look over these solved cases?
| BINDER | glycan array binding signal (z-score) |
| --- | --- |
| Neuropilin-1 (Homo sapiens), O14786 (protein) FKCMEALGMESGEIHSDQITASSQYSTNWSAERSRLNYPENGWTPGEDSYREWIQVDLGLLRFVTAVGTQGAISKETKKKYYVKTYKIDVSSNGEDWITIKEGNKPVLFQGNTNPTDVVVAVFPKPLITRFVRIKPATWETGISMRFEVYGCKITDYPCSGMLGMVSGLISDSQITSSNQGDRNWMPENIRLVTSRSGWALPPAPHSYINEWLQIDLGEEKIVRGIIIQGGKHRENKVFMRKFKIGYSNNGSDWKMIMDDSKRKAKSFEGNNNYDTPELRTFPALSTRFIRIYPERATHGGLGLRMELLGCEVE | -0.292 |
| SLR2P3F12 (Tachypleus tridentatus), TAL2_TACTR (protein) MEKGTPPTHDSDNWMGRAKKIGNGGWNQFQFLFFDPNGYLYAVSKDKLYKASPPQSDTDNWIARATEIGSGGWSGFKSLFFHPNGYLYAVHGQRLYKALPPVSNQD | 2.75 |

As a next step, examine the binder that follows.
What value of glycan array binding signal (z-score) has been reported for the following binder? Crocus Lectin (Crocus vernus), Q9FVA1 (protein) MAKSLVLSSLLLALLLAAPLASLADNNVLLTGDVLHTDNQLSFESAAFVMQGDCNLVLYNEAGGFQSNTHGRGVGCTLRLNNFGQLEIHSANSNTPVWVSLRNGIPVRGDYAAVLGPDQHVTIYGPAIWSTPAPNRHERGATVSNIPRVRNVLFSSQVMSDNAQLATRDYSLVMRDDCNLALTKGSKTNIVWESGTSGRGQHCFMRLGHTGLIEISDDRLNTVWRSNTVGQEGDYVLILQINGQAVVYGPAVWSTASPARGGASAAL
-0.152

These data points were gathered from the supplement of paper PMC8728848.
